The reported numbers originate from PubChem BioAssay.

# Test system: PRMT1 (protein arginine N-methyltransferase 1)
# Assay notes: PRMT1 binders on small-molecule microarrays, primary screen, biochemical, small-molecule microarray, 635 nm fluorescence (AID 1088);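 note: binding of Prmt1 protein to compounds spotted on small-molecule microarray slides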
# Conditions: small-molecule microarray binding, higher = more signal
Consider the following compounds and their measured composite z-score readings.

Lab book: composite z-score of CCC(CC)C(O)C1C=CC2C(=O)N(C)C(=O)C2N1Nc1ccccc1 (stereo unspecified) noted as 1.02

Lab book: composite z-score of COCCOC(=O)N1C(=O)[C@@]2(c3cc(C#CCCO)ccc31)[C@H](C(=O)N1CCc3cc(OC)c(OC)cc3C1)[C@H]1C(=O)O[C@H](c3ccccc3)[C@H](c3ccccc3)N1[C@@H]2c1ccc(O)cc1 noted as 1.54

Lab book: composite z-score of CC(C)C[C@H]1NC(=O)[C@@]23C(=O)N[C@@H](Cc4ccccc4)C2[C@H](C)[C@@]2(C)O[C@H]2C3/C=C/C/C=C\CNC(=O)[C@H](Cc2ccccc2)NC1=O (stereo partly specified) noted as 1.14

Lab book: composite z-score of COCCOC(=O)N1C(=O)[C@@]2(c3cc(C#CCCO)ccc31)[C@H](c1ccc(OCCO)cc1)N1[C@H](c3ccccc3)[C@H](c3ccccc3)OC(=O)[C@H]1[C@@H]2C(=O)N1CCN(c2ncccn2)CC1 noted as 1.55

Lab book: composite z-score of O=C(NCc1ccccc1)[C@@]1(Cc2ccccc2)N=C(c2ccc(OCCCO)cc2)O[C@H]1c1ccccc1 noted as 0.982

***
Lab book: composite z-score of C=CCNC(=O)[C@H]1[C@@H]2C(=O)O[C@@H](c3ccccc3)[C@@H](c3ccccc3)N2[C@@H](c2ccc(OCCO)cc2)[C@]12C(=O)Nc1ccc(C#CC3=CCCCC3)cc12 noted as 1.55

Lab book: composite z-score of C=CCNC(=O)[C@H]1[C@@H]2C(=O)O[C@@H](c3ccccc3)[C@@H](c3ccccc3)N2[C@@H](c2ccc(OCCO)cc2)[C@]12C(=O)N(C(=O)OCCOC)c1ccccc12 noted as 1.54

Lab book: composite z-score of COCCCN1C(=O)[C@@]2(Cc3ccccc31)c1ccccc1C(=O)N(Cc1ccccc1C(F)(F)F)[C@H]2c1ccc(CO)cc1 noted as 0.979

Lab book: composite z-score of COC(=O)C(CC#Cc1ccc2c(c1)[C@]1(C(=O)N2)[C@H](C(=O)O)[C@H]2C(=O)O[C@H](c3ccccc3)[C@H](c3ccccc3)N2[C@@H]1c1ccc(O)cc1)C(=O)OC noted as 0.615

Lab book: composite z-score of CN1C(=O)C2C=CC(C(O)c3ccc(-c4ccccc4)s3)N(N(c3ccccc3)c3ccccc3)C2C1=O (stereo unspecified) noted as 0.668

Lab book: composite z-score of C=CCNC(=O)[C@@H]1[C@H]2C(=O)O[C@H](c3ccccc3)[C@H](c3ccccc3)N2[C@H](c2ccc(OCCO)cc2)[C@@]12C(=O)Nc1ccc(C#Cc3ccc(OC)cc3)cc12 noted as 1.55

---

Consider the following molecules and their measured composite z-score readings.
# Measured on: Epidermal growth factor receptor (Homo sapiens)
# Assay notes: EGFR binders on small-molecule microarrays, primary screen, biochemical, small-molecule microarray, 635 nm fluorescence (AID 1104);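 note: score merges 667 nm emission intensity with spot signal to noise over triplicate slides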
# Conditions: EGFR binding, higher = more signal
Lab note: jot down the number only; don't add units.

Below: 4 molecules and their reported composite z-score.
Lab book: composite z-score of O=C1OCCC/C=C\[C@H]2OC34C=CCN(c5ccc6ccccc6c5)C(=O)[C@H]3N(CCCCCCO)C(=O)[C@@H]4C12 (some centres not stated) noted as 0.102

Lab book: composite z-score of CC(C)N1C(=O)c2ccccc2[C@](C)(C(=O)NCc2ccccc2)[C@@H]1c1ccc(CO)cc1 noted as -0.587

Lab book: composite z-score of C#CCN(CC=C(C)C)[C@H](CO)c1ccccc1 noted as 0.372

Lab book: composite z-score of CCOC(=O)C[C@H]1[C@H](OC(=O)c2ccc(C(=O)c3ccccc3)cc2)[C@@H](NC(=O)c2ccc(-c3ccccc3)cc2)c2cc(OCCCO)ccc2N1C(=O)c1ccccc1 noted as 0.515

***
Lab book: composite z-score of C=CCN1C(=O)[C@@]2(O[C@@H](CCO)[C@H]([Si](C)(C)c3ccc(OC)cc3)[C@H]2C)c2cc(NC(=O)c3ccc(OC)cc3)ccc21 noted as 0.424

Lab book: composite z-score of COc1ccc([C@H]2C[C@H]3C(Br)=C[C@@H]2C(=O)[C@]32CO2)cc1 noted as 0.427

Lab book: composite z-score of O=C1[C@H]2C=C(Br)[C@H](C[C@@H]2OCCCCO)[C@@]12CO2 noted as 0.224

Lab book: composite z-score of CCCC[C@H]1OB(O)C[C@H]2C1=C(COc1ccccc1)C[C@H]1C(=O)N(C)C(=O)[C@H]12 noted as 0.447

Lab book: composite z-score of NCCCCCNC(=O)[C@@H]1C[C@@H]2C(=O)NCC(=O)N2[C@@H]1c1ccc(O)cc1 noted as -0.318

Lab book: composite z-score of COCC(=C=CC[C@H](O)c1ccccc1OCCO)C[C@H](O)c1cc(Cl)cc(Cl)c1O noted as -0.0335

---

# Assay notes: fission yeast growth modulation, primary screen, strain 972, OD600, 24 h, no modulator (AID 1090);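 note: basal condition with compound alone and no growth modifier present; test concentration not given here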
# Conditions: S. pombe 972 growth, called active from +8 up or from −8 down
The source made the active and inactive calls.
In this exercise, the only acceptable responses are Yes (active), No (inactive)

These recorded examples may help you get a feel for the data.
(Q) Hi, sorry to bother you, what did the test record for O=C1NC(=O)C2C1C=CC(C(O)c1cccc3ccccc13)N2Nc1ccccn1 (configuration not stated) ?
(A) No

(Q) Hi, sorry to bother you, what did the test record for CC(C)(C)OC(=O)CC[C@]12N=C(c3ccc(OCCCO)cc3)O[C@H]1c1ccccc1N(CCS(=O)(=O)c1ccccc1)C2=O ?
(A) No

(Q) Hi, sorry to bother you, what did the test record for O=C(NCc1ccc(F)cc1)[C@H]1C[C@H]2C(=O)N[C@@H](Cc3ccccc3)C(=O)N2[C@H]1c1ccc(O)cc1 ?
(A) No

***
(Q) Hi, sorry to bother you, what did the test record for [N-]=[N+]=NCc1ccccc1C[C@@]1(C(=O)NCC(O)CO)N=C(c2ccc(OCCCO)cc2)O[C@@H]1c1ccccc1N=[N+]=[N-] (some centres not stated) ?
(A) No

(Q) Hi, sorry to bother you, what did the test record for CN1C(=O)C2C=CC(C(O)C3CC=CCC3)N(NC(=O)OC(C)(C)C)C2C1=O (configuration not stated) ?
(A) No

(Q) Hi, sorry to bother you, what did the test record for COC(=O)[C@@]1(Cc2ccc(OC)cc2)[C@H]2c3cc(C(=O)N4CCCC4)n(Cc4ccccc4)c3C[C@H]2CN1C(=O)c1ccccc1 ?
(A) No

(Q) Hi, sorry to bother you, what did the test record for CCCC#C[Si](O[C@H](CC)c1cn([C@H](CO)Cc2ccccc2)nn1)(C(C)C)C(C)C ?
(A) Yes

---

# Measured on: Torsin-1A (Homo sapiens)
# Assay notes: small-molecule binders of mutant TOR1A in lysate, primary screen, cell lysate, small-molecule microarray, COS7 lysate, 635/667 nm fluorescence (AID 1150);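 note: score pools 667 nm emission and signal to noise measuring lysate protein binding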
# Conditions: COS7 hTOR1A mutant lysate, 635 nm fluorescence, higher = more signal
Consider the following molecules and their measured composite z-score readings.
Lab note: jot down the number only; don't add units.

Below: 5 molecules and their reported composite z-score.
Lab book: composite z-score of C=C(COC)/C(=C/C[C@@H](OC(C)=O)c1ccc(CO)o1)c1cnc2ccccc2c1 noted as 0.73

Lab book: composite z-score of N#Cc1ccc(NN2C(C(O)c3c(F)cccc3Cl)C=CC3C(=O)N(c4ccccc4)C(=O)C32)cc1 (centres undefined) noted as 1.35

Lab book: composite z-score of CC1CC/C=C\[C@H]2OC34C=CCN(Cn5nnc6ccccc65)C(=O)[C@H]3N(C(CO)C(C)C)C(=O)[C@@H]4C2C(=O)O1 (some centres undefined) noted as -1.12

Lab book: composite z-score of COCCOC(=O)N1C(=O)[C@@]2(c3cc(C#Cc4ccc(OC)cc4)ccc31)[C@H](C(=O)N1CCCCCCC1)[C@H]1C(=O)O[C@H](c3ccccc3)[C@H](c3ccccc3)N1[C@@H]2c1ccc(OCCO)cc1 noted as 1.06

Lab book: composite z-score of COCCCN1C(=O)[C@@]2(c3ccc([N+](=O)[O-])cc3)CC(=O)N(C3CCCCC3)[C@@H]2c2ccc(CO)cc21 noted as -0.289

***
Lab book: composite z-score of CCOC(=O)C[C@H]1[C@H](OC(=O)Cc2ccc3c(c2)OCO3)[C@@H](NC(=O)c2ccc(-c3ccccc3)cc2)c2cc(OCCCO)ccc2N1C(=O)Cc1ccc(OC)cc1 noted as 0.394

Lab book: composite z-score of COc1ccc(C(O)C2C=CC3C(=O)N(c4ccccc4)C(=O)C3N2Nc2ccccc2F)cc1OCc1ccccc1 (centres undefined) noted as 0.671

Lab book: composite z-score of CN1C(=O)C2C=CC(C(O)c3ccc(-c4ccccc4)s3)N(N(c3ccccc3)c3ccccc3)C2C1=O (centres undefined) noted as -0.0126

Lab book: composite z-score of NCCCCCNC(=O)[C@@H]1C[C@@H]2C(=O)N[C@@H](Cc3ccccc3)C(=O)N2[C@@H]1c1cccc(OCCO)c1 noted as 0.373
